The measured values listed here are drawn from patent US10434103B2.

test: in vivo; details: BALB/c, mouse, plasma, po, 50 mg/kg
Measurement kind: AUC (µM·h)
API: value field is a number in µM·h; no unit string.

Which measured AUC value corresponds to C=CC(=O)N1CC[C@H](n2nc(C#Cc3cc(OC)cc(OC)c3)c3c(N)ncnc32)C1 [Crystal I] ?
9.82
